- System: PDE4
- testDescription: Inhibition of PDE4, radioenzymatic phosphodiesterase assay
- Assay type: biochemical, bovine
- protocolConditions: Table 1, formula (III); compound at 10 μM
measuredProperty: PDE4 percentage inhibition at 10 μM (%)
Supply the numeric figure in %, leaving out any unit text.

PDE4 percentage inhibition at 10 μM lookup needed for CCCCCCCCCCCCN1N=C(c2ccccc2)c2cc(OC)c(OC)cc2CC1=O , thanks.
3.9

Param item: CCN1N=C(c2ccccc2)c2cc(OC)c(OC)cc2CC1=O
36

Param item: CCCN1N=C(c2ccccc2)c2cc(OC)c(OC)cc2CC1=O
30

Param item: COc1cc2c(cc1OC)C(c1ccccc1)=NN(Cc1ccccc1)C(=O)C2
33

Param item: COC(=O)CCCCCCCCCCCN1N=C(c2ccccc2)c2cc(OC)c(OC)cc2CC1=O
19
